# Test system: NOMO-1
# Assay type: cell-based
# assay-context: CD74 ADC with the named linker-payload, 5 days
Where a name gives a salt, the structure may show the parent alone.
experimental-endpoint: NOMO-1 Amax

INSERT INTO assay_data (compound, assay_value) VALUES
  ('COc1ccccc1-c1nccc(COc2ccccc2C[C@@H](Oc2ncnc3sc(-c4ccc(F)cc4)c(-c4ccc(OCCN5CC[N+](C)(Cc6ccc(NC(=O)[C@H](CCCNC(N)=O)NC(=O)[C@@H](NC(=O)CCOCCN7C(=O)C=CC7=O)C(C)C)cc6COCc6cn(CCOC(=O)NS(=O)(=O)NCCOCCOCCOCCC(=O)O)nn6)CC5)c(Cl)c4C)c23)C(=O)O)n1 [L60-P1, trifluoroacetate]', 76.94),
  ('COCCOCCOCCOCCOCCOCCOCCOCCOCCOCCOCCOCCOCCOCCOCCOCCOCCOCCOCCOCCOCCOCCOCCOCCn1cc(COCc2cc(NC(=O)[C@H](CCCNC(N)=O)NC(=O)[C@@H](NC(=O)CCOCCN3C(=O)C=CC3=O)C(C)C)ccc2C[N+]2(C)CCN(CCOc3ccc(-c4c(-c5ccc(F)cc5)sc5ncnc(O[C@H](Cc6ccccc6OCc6ccnc(-c7ccccc7OC)n6)C(=O)O)c45)c(C)c3Cl)CC2)nn1 [L5-P1]', 55.58),
  ('COc1ccccc1-c1nccc(COc2ccccc2C[C@@H](Oc2ncnc3sc(-c4ccc(F)cc4)c(-c4ccc(OCCN5CC[N+](C)(Cc6ccc(NC(=O)[C@H](CCCNC(N)=O)NC(=O)[C@@H](NC(=O)CCOCCN7C(=O)C=CC7=O)C(C)C)cc6CN(C)C(=O)C[C@H](NC(=O)CS(=O)(=O)O)C(=O)O)CC5)c(Cl)c4C)c23)C(=O)O)n1 [L79-P1]', 56.07),
  ('COCCOCCOCCOCCOCCOCCOCCOCCOCCOCCOCCOCCOCCOCCOCCOCCC(=O)N(C)Cc1cc(NC(=O)[C@H](CCCNC(N)=O)NC(=O)[C@@H](NC(=O)CCOCCN2C(=O)C=CC2=O)C(C)C)ccc1C[N+]1(C)CCN(CCOc2ccc(-c3c(-c4ccc(F)cc4)sc4ncnc(O[C@H](Cc5ccccc5OCc5ccnc(-c6ccccc6OC)n5)C(=O)O)c34)c(C)c2Cl)CC1 [L31-P1]', 73.4),
  ('COc1ccccc1-c1nccc(COc2ccccc2C[C@@H](Oc2ncnc3sc(-c4ccc(F)cc4)c(-c4ccc(OCCN5CC[N+](C)(Cc6ccc(NC(=O)[C@H](CCCNC(N)=O)NC(=O)[C@@H](NC(=O)CCOCCN7C(=O)C=CC7=O)C(C)C)cc6CN(C)C(=O)CN(C)C(=O)CN(C)C(=O)CN(C)C(=O)CN(C)C(=O)CN(C)C(=O)CN(C)C(=O)CN(C)C(=O)CN(C)C(=O)CN(C)C(=O)CN(C)C(=O)CN(C)C(=O)CN(C)C(=O)CCC(=O)O)CC5)c(Cl)c4C)c23)C(=O)O)n1 [L35-P1]', 62.73),
  ('COc1ccccc1-c1nccc(COc2ccccc2C[C@@H](Oc2ncnc3sc(-c4ccc(F)cc4)c(-c4ccc(OCCN5CC[N+](C)(Cc6ccc(NC(=O)[C@H](CCCNC(N)=O)NC(=O)[C@@H](NC(=O)CCOCCN7C(=O)C=CC7=O)C(C)C)cc6CN(C)C(=O)OC[C@H](NC(=O)CS(=O)(=O)O)C(=O)O)CC5)c(Cl)c4C)c23)C(=O)O)n1 [L77-P1]', 48.53);

// provenance: patent US20230081720A1
